# TEST SYSTEM: T1, human a-PD-L1 Fc (Sino Biological, 10084-H02H, LC11NO2402) (human, UniProt Q9NZQ7 19-239)
# T1 construct: Bought Fc fusion immobilised on the SPR chip; Printed as 'a-PD-L1 Fc' but used as the antigen (ligand) for the anti-PD-L1 scFvs; also called Human PD-L1; not shown: Fc part
# T1 sequence (Q9NZQ7 19-239 limits assumed): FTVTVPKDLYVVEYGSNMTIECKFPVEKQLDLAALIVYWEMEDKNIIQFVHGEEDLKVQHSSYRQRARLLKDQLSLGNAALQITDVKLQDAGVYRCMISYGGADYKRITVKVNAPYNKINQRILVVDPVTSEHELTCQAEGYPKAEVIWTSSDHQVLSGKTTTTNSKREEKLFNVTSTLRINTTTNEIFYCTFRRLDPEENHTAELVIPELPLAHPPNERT
# TEST METHOD NOTES: SPR, PD-L1 Fc immobilised, scFv analyte, 1:1 fit
# Procedure: The mutation variants were then injected at concentrations of 10 nM, 2 nM and 0.4 nM over the ligand-immobilized and reference spots. The wild type variants were used as a control, while an empty spot was used as reference. After each cycle with analyte, the surface was regenerated with a 3M MgCl₂ solution, thereby allowing the next analyte cycle to have only free ligand available. […]
ASSAY METRIC: n-fold to wt (fold)
Field: numeric (fold). Do not append units.

INSERT INTO results (binder, assay_metric, endpoint_unit, measurement) VALUES
  ('PRO3309 (scFv 37-20-B03-sc09.1_(L12R, T101S, L144A, T146Q)) (scFv, PRO2230 variant; VH substitutions, AHo numbering; also called PRO2230 L12R-T101S-L144A-T146Q) scFv: DIQMTQSPASLSASVGDRVTITCQASQSIGTYLAWYQQKPGKPPKLLIYRAFILASGVPSRFSGSGSGTDFTLTISSLQPEDFATYYCQSNFYSDSTTIGPNAFGTGTKVTVLGGGGGSGGGGSGGGGSGGGGSEVQLVESGGGRVQPGGSLRLSCAASGFSFNSDYWIYWVRQAPGKGLEWIASIYGGSSGNTQYASWAQGRFTISRDNSKNTVYLQMNSLRAEDSAVYFCARGYVDYGGATDLWGQGTAVQVSS', 'n-fold to wt', 'fold', 0.5),
  ('PRO3339 (scFv 37-20-B03-sc09.1_(T101N, T146Q)) (scFv, PRO2230 variant; VH substitutions, AHo numbering; also called PRO2230 T101N-T146Q) scFv: DIQMTQSPASLSASVGDRVTITCQASQSIGTYLAWYQQKPGKPPKLLIYRAFILASGVPSRFSGSGSGTDFTLTISSLQPEDFATYYCQSNFYSDSTTIGPNAFGTGTKVTVLGGGGGSGGGGSGGGGSGGGGSEVQLVESGGGLVQPGGSLRLSCAASGFSFNSDYWIYWVRQAPGKGLEWIASIYGGSSGNTQYASWAQGRFTISRDNSKNTVYLQMNSLRAEDNAVYFCARGYVDYGGATDLWGQGTLVQVSS', 'n-fold to wt', 'fold', 0.7);

API: the following record is the query input.
[Q] Give the measured n-fold to wt of PRO3338 (scFv 37-20-B03-sc09.1_(T101K, T146Q)) (scFv, PRO2230 variant; VH substitutions, AHo numbering; also called PRO2230 T101K-T146Q) scFv: DIQMTQSPASLSASVGDRVTITCQASQSIGTYLAWYQQKPGKPPKLLIYRAFILASGVPSRFSGSGSGTDFTLTISSLQPEDFATYYCQSNFYSDSTTIGPNAFGTGTKVTVLGGGGGSGGGGSGGGGSGGGGSEVQLVESGGGLVQPGGSLRLSCAASGFSFNSDYWIYWVRQAPGKGLEWIASIYGGSSGNTQYASWAQGRFTISRDNSKNTVYLQMNSLRAEDKAVYFCARGYVDYGGATDLWGQGTLVQVSS .
[A] 0.4
